# system-name: EGFR G724S (Homo sapiens, UniProt P00533, G724S)
# Construct: expressed in transfected cells; host or cells: Ba/F3
# measurement-description: Ba/F3 drug screening, Cell Titer Glo, IC50 Mut/WT
# Format: cell-based
# run-conditions: PACC; G724S; Ba/F3; 72 hours
metric: ratio of IC50 for cells with mutant EGFR to IC50 for cells with wildtype EGFR (Mut/WT)

CNC(=O)CN1CCC(Oc2cc3c(Nc4cccc(Cl)c4F)ncnc3cc2OC)CC1    0.141

a = COc1cc2ncnc(Nc3cccc(Cl)c3F)c2cc1OC(=O)N1CCN(C)C[C@H]1C
b = COc1cc2ncnc(Nc3ccc(F)c(Cl)c3)c2cc1NC(=O)/C=C/CN1CCCCC1
c = CN(C)C/C=C/C(=O)Nc1cc2c(Nc3ccc(Cl)c(Br)c3)ncnc2cn1
Enquiry: # ascending order, key=ratio of IC50 for cells with mutant EGFR to IC50 for cells with wildtype EGFR (Mut/WT) Provide the labels, sequenced as the question asks.
Return: a, b, c
(a: 0.01105, b: 0.2379, c: 8.499)

----------
# system-name: EGFR S768I/T790M (Homo sapiens, UniProt P00533, S768I/T790M)
# Construct: expressed in transfected cells; host or cells: Ba/F3
# measurement-description: Ba/F3 drug screening, Cell Titer Glo, IC50 Mut/WT
# Assay type: cell-based
# run-conditions: T790M-like-3S, 72 hours
metric: ratio of IC50 for cells with mutant EGFR to IC50 for cells with wildtype EGFR (Mut/WT)

C=CC(=O)N[C@H]1C=C(C)c2c(-c3cnc4ccccc4c3)c3c(N)ncnc3n2C1    0.1153

a = C=CC(=O)N1CC[C@@H](Oc2nc(Nc3ccc(N4CCC(N5CCN(C)CC5)CC4)cc3)c(C(N)=O)nc2CC)C1
b = COc1cc2ncnc(Nc3ccc(F)c(Cl)c3)c2cc1NC(=O)/C=C/CN1CCCCC1
c = Cc1cc(C(=O)Nc2nc3cccc(Cl)c3n2[C@@H]2CCCCN(C(=O)/C=C/CN(C)C)C2)ccn1
Enquiry: Put the entries in order of ratio of IC50 for cells with mutant EGFR to IC50 for cells with wildtype EGFR (Mut/WT), starting with the largest number. Provide the labels, sequenced as the question asks.
Return: b, a, c
(b: 1.282, a: 0.1426, c: 0.0197)

----------
# system-name: EGFR L858R T790M V843I (Homo sapiens, UniProt P00533, L858R/T790M/V843I)
# Construct: expressed in transfected cells; host or cells: Ba/F3
# measurement-description: Ba/F3 drug screening, Cell Titer Glo, IC50 Mut/WT
# Format: cell-based
# run-conditions: T790M-like-3S, 72 hours
metric: ratio of IC50 for cells with mutant EGFR to IC50 for cells with wildtype EGFR (Mut/WT)

Would you please look over these solved cases?
CN(C)C/C=C/C(=O)Nc1cc2c(Nc3ccc(Cl)c(Br)c3)ncnc2cn1 [Tarlox-TKI]    70.97
C=CC(=O)N[C@H]1C=C(C)c2c(-c3cnc4ccccc4c3)c3c(N)ncnc3n2C1 [TAS 6417]    0.07336
C=CC(=O)Nc1cccc(Oc2nc(Nc3ccc(N4CCN(C)CC4)cc3)nc3ccsc23)c1 [Olmutinib]    0.000771
C=CC(=O)Nc1cc(Nc2nccc(-c3c[nH]c4ccccc34)n2)c(OC)cc1N(C)CCN(C)C [AZ5104]    0.6934
C=CC(=O)Nc1cc(Nc2ncc(C(=O)OC(C)C)c(-c3cn(C)c4ccccc34)n2)c(OC)cc1N(C)CCN(C)C [TAK-788 (mobocertinib), mobocertinib]    1.649
CNC(=O)CN1CCC(Oc2cc3c(Nc4cccc(Cl)c4F)ncnc3cc2OC)CC1 [Sapatinib]    49

A = C=CC(=O)Nc1cc(Nc2nccc(-n3cc(CN(C)C)c(-c4ccccc4)n3)n2)c(OC)cc1N1CCOCC1 [Lazertinib]
B = Cc1cc(C(=O)Nc2nc3cccc(Cl)c3n2[C@@H]2CCCCN(C(=O)/C=C/CN(C)C)C2)ccn1 [Nazartinib]
C = COc1cc2ncnc(Nc3cccc(Cl)c3F)c2cc1OC(=O)N1CCN(C)C[C@H]1C [AZD3759]
D = COc1cc2ncnc(Nc3ccc(F)c(Cl)c3)c2cc1NC(=O)/C=C/CN1CCCCC1 [Dacomitinib]
E = C=CC(=O)N1CC[C@@H](Oc2nc(Nc3ccc(N4CCC(N5CCN(C)CC5)CC4)cc3)c(C(N)=O)nc2CC)C1 [Naquotinib]
Enquiry: # ascending order, key=ratio of IC50 for cells with mutant EGFR to IC50 for cells with wildtype EGFR (Mut/WT) Provide the labels, sequenced as the question asks.
Return: E, B, A, C, D
